Ref: the supplement of paper PMC10567573

B1: ZBED2 (parent)
chain: FHLAPARAGHHPNQYATCRLCGRQ

Variants of: B1
TEST PROTOCOL: protein stability index of a GFP-peptide fusion (GPS, HEK-293T) (PSI 1-6); higher = more stable;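 note: lentivirally expressed fusions sorted by FACS into six bins by GFP to DsRed ratio, PSI derived from sequencing read proportions per bin multiplied by bin number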
EXPERIMENTAL SETUP: c terminus: a fixed tail appended
PROPERTY NAME: protein stability index

Illustrative cases are given below, each with its answer.
FHLAPARAGHHPNQYATCHLCGRQ [R19H]
2.05
FHLAPARAGHHPNQYATCRLCFRQ [G22F]
1.95
FHLAPARAGHHPNQYATCRNCGRQ [L20N]
1.31

Q. Supply protein stability index value. Item: FHLAPARAGHHPNQYATARLCGRQ [C18A]
A. 2.12

Q. Supply protein stability index value. Item: FHLAPARLGHHPNQYATCRLCGRQ [A8L]
A. 2.47

Q. Supply protein stability index value. Item: FHLAPARAGTHPNQYATCRLCGRQ [H10T]
A. 3.52

Q. Supply protein stability index value. Item: SHLAPARAGHHPNQYATCRLCGRQ [F1S]
A. 3.33

Q. Supply protein stability index value. Item: FHLAPAREGHHPNQYATCRLCGRQ [A8E]
A. 2.34

Q. Supply protein stability index value. Item: FHLAPARAGHHPNQYATKRLCGRQ [C18K]
A. 2.22

Q. Supply protein stability index value. Item: FHLAPARAGHHPNQYTTCRLCGRQ [A16T]
A. 2.3

Q. Supply protein stability index value. Item: FHGAPARAGHHPNQYATCRLCGRQ [L3G]
A. 1.53

Q. Supply protein stability index value. Item: FHLAPARAGHHPNQYATCRLAGRQ [C21A]
A. 3.59
